Data origin: patent US10538555B2

In this section we review reported IC50 values for a set of compounds.
target: Human PD-L1/PD-1 (Homo sapiens, UniProt Q9NZQ7); construct: TVMV protease cleavage site (C); made in house; host or cells: HEK293T cells; test: HTRF Human PD-L1/PD-1 binding assay (PD-1-Ig/PD-L1-His); details: PD-L1-His 10 nM, PD-1-Ig 20 nM; class symbol; read-out: HTRF Human PD-L1/PD-1 Binding Assay IC50 Range
Sequence (Q9NZQ7 with tags, fused parts or gaps): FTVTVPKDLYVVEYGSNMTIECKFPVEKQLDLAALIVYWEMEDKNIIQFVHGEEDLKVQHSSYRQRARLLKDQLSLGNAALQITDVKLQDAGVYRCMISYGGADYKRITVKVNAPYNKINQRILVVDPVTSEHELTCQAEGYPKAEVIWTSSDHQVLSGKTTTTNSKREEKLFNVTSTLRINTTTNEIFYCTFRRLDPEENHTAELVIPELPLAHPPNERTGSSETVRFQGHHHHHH
Where a SMILES comes first, the peptide text is derived from it. Bridges are numbered along the chain shown (N, C = ends). [ ]: non-standard residue; d: D form. ξ: configuration not given here. 1Nal = N[C@@H](Cc1cccc2ccccc12)C(=O)O; Hyp = O=C(O)[C@@H]1C[C@@H](O)CN1; NMeNle = CCCC[C@H](NC)C(=O)O; hSer = N[C@@H](CCO)C(=O)O; NMeA = CN[C@@H](C)C(=O)O; Orn = NCCC[C@H](N)C(=O)O; Dab = NCC[C@H](N)C(=O)O; ξC = NC(CS)C(=O)O; Sar = CNCC(=O)O

These recorded examples may help you get a feel for the data.
• CCCC[C@H]1C(=O)N(C)[C@@H](CCCC)C(=O)N[C@@H](C)C(=O)N[C@H](C(=O)NCC(N)=O)CSCC(=O)N[C@@H](Cc2ccc(O)cc2)C(=O)N(C)[C@@H](C)C(=O)N[C@@H](CCC(=O)O)C(=O)N2CCC[C@H]2C(=O)N[C@@H](Cc2cnc[nH]2)C(=O)N[C@@H](CCN)C(=O)N2C[C@H](O)C[C@H]2C(=O)N[C@@H](Cc2c[nH]c3ccccc23)C(=O)N[C@@H](CO)C(=O)N[C@@H](Cc2c[nH]c3ccccc23)C(=O)N1C [Example 1248] ({CH2CO}-Y[NMeA]EPH[Dab][Hyp]WSW[NMeNle][NMeNle]ACG-NH2; thioether N-14) = 10 to 99.9 nM
• CCCC[C@H]1C(=O)N[C@@H](CC(N)=O)C(=O)N2CCC[C@H]2C(=O)N[C@@H](CO)C(=O)N[C@@H](CCO)C(=O)N2C[C@H](O)C[C@H]2C(=O)N[C@@H](Cc2c[nH]c3ccccc23)C(=O)N[C@@H](CO)C(=O)N[C@@H](Cc2c[nH]c3ccccc23)C(=O)N(C)[C@@H](C)C(=O)N(C)[C@@H](C)C(=O)N[C@@H](CCCCN)C(=O)NC(C(=O)NCC(N)=O)CSCC(=O)N[C@@H](Cc2ccc(O)cc2)C(=O)N1C (some centres unmarked) [Example 10211] ({CH2CO}-Y[NMeNle]NPS[hSer][Hyp]WSW[NMeA][NMeA]K[ξC]G-NH2; thioether N-14) = 1000 to 10000 nM
• CCCC[C@H]1C(=O)N(C)[C@@H](C)C(=O)N[C@@H](CCCNC(=N)N)C(=O)NC(C(=O)N[C@@H](CO)C(N)=O)CSCC(=O)N[C@@H](Cc2ccc(O)cc2)C(=O)N(C)[C@@H](C)C(=O)N[C@@H](CC(N)=O)C(=O)N2CCC[C@H]2C(=O)N[C@@H](CO)C(=O)N[C@H](CC(C)C)C(=O)N2C[C@H](O)C[C@H]2C(=O)N[C@@H](Cc2c[nH]c3ccccc23)C(=O)N[C@@H](CO)C(=O)N[C@@H](Cc2c[nH]c3ccccc23)C(=O)N1C (stereo partly drawn) [Example 9123] ({CH2CO}-Y[NMeA]NPS[dL][Hyp]WSW[NMeNle][NMeA]R[ξC]S-NH2; thioether N-14) = 1 to 9.9 nM
• CCCC[C@H]1C(=O)N(C)[C@@H](CCCC)C(=O)N[C@@H](CCC(=O)O)C(=O)N[C@H](C(=O)NCC(N)=O)CSCC(=O)N[C@@H](Cc2ccc(O)cc2)C(=O)N(C)[C@@H](C)C(=O)N[C@@H](CC(=O)O)C(=O)N2CCC[C@H]2C(=O)N[C@@H](CO)C(=O)N[C@@H](CCC(N)=O)C(=O)N2C[C@H](O)C[C@H]2C(=O)N[C@@H](Cc2c[nH]c3ccccc23)C(=O)N[C@@H](CCC(=O)O)C(=O)N[C@@H](Cc2c[nH]c3ccccc23)C(=O)N1C [Example 5177] ({CH2CO}-Y[NMeA]DPSQ[Hyp]WEW[NMeNle][NMeNle]ECG-NH2; thioether N-14) = 10 to 99.9 nM
• CCCC[C@H]1C(=O)N(C)[C@@H](CCCC)C(=O)N[C@@H](CCCN)C(=O)NC(C(=O)NCC(N)=O)CSCC(=O)N[C@@H](Cc2ccc(O)cc2)C(=O)N(C)[C@@H](C)C(=O)N[C@@H](CC(N)=O)C(=O)N2CCC[C@H]2C(=O)N[C@@H](CC(N)=O)C(=O)N[C@@H](CC(C)C)C(=O)N2C[C@H](O)C[C@H]2C(=O)N[C@@H](Cc2c[nH]c3ccccc23)C(=O)N[C@@H](CO)C(=O)N[C@@H](Cc2c[nH]c3ccccc23)C(=O)N1C (some centres unmarked) [Example 9157] ({CH2CO}-Y[NMeA]NPNL[Hyp]WSW[NMeNle][NMeNle][Orn][ξC]G-NH2; thioether N-14) = 1 to 9.9 nM
• CCCC[C@H]1C(=O)N(C)[C@@H](CCCC)C(=O)N[C@@H](C)C(=O)N[C@H](C(=O)NCC(N)=O)CSCC(=O)N[C@@H](Cc2ccc(O)cc2)C(=O)N(C)[C@@H](C)C(=O)N[C@@H](CC(N)=O)C(=O)N2CCC[C@H]2C(=O)N[C@@H](Cc2cnc[nH]2)C(=O)N[C@@H](CCC(N)=O)C(=O)N2C[C@H](O)C[C@H]2C(=O)N[C@@H](Cc2c[nH]c3ccccc23)C(=O)N[C@@H](CO)C(=O)N[C@@H](Cc2cccc3ccccc23)C(=O)N1C [Example 1289] ({CH2CO}-Y[NMeA]NPHQ[Hyp]WS[1Nal][NMeNle][NMeNle]ACG-NH2; thioether N-14) = 1 to 9.9 nM
• CCCC[C@H]1C(=O)N(C)[C@@H](CCCC)C(=O)N[C@@H](CN)C(=O)N[C@H](C(N)=O)CSCC(=O)N[C@@H](Cc2ccc(O)cc2)C(=O)N(C)[C@@H](C)C(=O)N[C@@H](CC(N)=O)C(=O)N2CCC[C@H]2C(=O)N[C@@H](CN)C(=O)N[C@@H](CC(C)C)C(=O)N2C[C@H](O)C[C@H]2C(=O)N[C@@H](Cc2c[nH]c3ccccc23)C(=O)N[C@@H](CO)C(=O)N[C@@H](Cc2cn(CC(=O)O)c3ccccc23)C(=O)N1C = 1 to 9.9 nM

Please look up its IC50: CCCC[C@H]1C(=O)N(C)[C@@H](CCCC)C(=O)N(C)CC(=O)N[C@H](C(=O)NCC(N)=O)CSCC(=O)N[C@@H](Cc2ccc(O)cc2)C(=O)N(C)[C@@H](C)C(=O)N[C@@H](CC(N)=O)C(=O)N2CCC[C@H]2C(=O)N[C@@H](Cc2c[nH]cn2)C(=O)N[C@@H](CCC(N)=O)C(=O)N2C[C@H](O)C[C@H]2C(=O)N[C@@H](Cc2c[nH]c3ccccc23)C(=O)N[C@@H](CO)C(=O)N[C@@H](Cc2c[nH]c3ccccc23)C(=O)N1C [Example 5263] ({CH2CO}-Y[NMeA]NPHQ[Hyp]WSW[NMeNle][NMeNle][Sar]CG-NH2; thioether N-14)
1000 to 10000 nM

---

As shown below, each of these compounds has a reported pIC50 value.
target: Human PD-L1/PD-1 (Homo sapiens, UniProt Q9NZQ7); construct: TVMV protease cleavage site (C); made in house; host or cells: HEK293T cells; assay: HTRF Human PD-L1/PD-1 binding assay (PD-1-Ig/PD-L1-His); settings: PD-L1-His 10 nM, PD-1-Ig 20 nM; class symbol; read-out: HTRF Human PD-L1/PD-1 Binding Assay IC50 Range
pIC50: −log10 of the molar value. Where a SMILES comes first, the peptide text is derived from it. Bridges are numbered along the chain shown (N, C = ends). [ ]: non-standard residue; d: D form. ξ: configuration not given here. ξTrp(7-aza) = NC(Cc1c[nH]c2ncccc12)C(=O)O; Hyp = O=C(O)[C@@H]1C[C@@H](O)CN1; NMeF = CN[C@@H](Cc1ccccc1)C(=O)O; NMeNle = CCCC[C@H](NC)C(=O)O; NMeA = CN[C@@H](C)C(=O)O; Sar = CNCC(=O)O

* CCCC[C@H]1C(=O)N(C)CC(=O)N[C@@H](CC(=O)O)C(=O)N[C@@H](C(C)C)C(=O)N(C)[C@@H](Cc2ccccc2)C(=O)N[C@@H](Cc2ccc(O)cc2)C(=O)N(C)CC(=O)NC(Cc2c[nH]c3ncccc23)C(=O)N[C@@H](Cc2ccc(O)cc2)C(=O)N[C@@H](CC(C)C)C(=O)N[C@H](C(=O)NCC(N)=O)CSCC(=O)N[C@@H](Cc2ccccc2)C(=O)N(C)[C@@H](Cc2ccccc2)C(=O)N1C (some centres unmarked) [Example 3239] ({CH2CO}-F[NMeF][NMeNle][Sar]DV[NMeF]Y[Sar][ξTrp(7-aza)]YLCG-NH2; thioether N-13) | 7.00 to 8.00

May I ask what pIC50 has been recorded for CCCC[C@H]1C(=O)N(C)[C@@H](CCCC)C(=O)N[C@@H](CO)C(=O)N[C@H](C(=O)NCC(N)=O)CSCC(=O)N[C@@H](Cc2ccc(OC)cc2)C(=O)N(C)[C@@H](C)C(=O)N[C@@H](CC(N)=O)C(=O)N2CCC[C@H]2C(=O)N[C@@H](CO)C(=O)N[C@@H](CCC(N)=O)C(=O)N2C[C@H](O)C[C@H]2C(=O)N[C@@H](Cc2c[nH]c3ccccc23)C(=O)N[C@@H](CO)C(=O)N[C@@H](Cc2c[nH]c3ccccc23)C(=O)N1C [Example 7138] ({CH2CO}-Y(Me)[NMeA]NPSQ[Hyp]WSW[NMeNle][NMeNle]SCG-NH2; thioether N-14) ?
8.00 to 9.00
